Values compiled from ChEMBL document CHEMBL4028916.

# PROCEDURE SUMMARY: Half life in Sprague-Dawley rat at 0.5 mg/kg, iv by LC-MS/MS method
# Format: ADME, organism-based
# CONDITION CONTEXT: in vivo
MEASURED ENDPOINT: half-life (h)
Answers are plain numbers, in h.

Reported half-life ( C[C@H]1Cc2c(nnn2-c2ncc(F)cn2)CN1C(=O)c1cccc(C(F)(F)F)c1F ) = 2.5

====

# PROCEDURE SUMMARY: Oral bioavailability in Beagle dog at 1.25 mg/kg by LC-MS/MS method
# Type: ADME, organism-based, Canis lupus familiaris
# CONDITION CONTEXT: in vivo
MEASURED ENDPOINT: bioavailability (%)
Numbers only, in %.

Reported bioavailability ( C[C@H]1Cc2c(nnn2-c2ncc(F)cn2)CN1C(=O)c1ccnc(C(F)(F)F)c1F ) = 98

====

# PROCEDURE SUMMARY: Cmax in dog at 10 mg/kg, po for 5 days
# Format: ADME, organism-based, Canis lupus familiaris
# Set-up: dose 10 mg/kg, route oral
# CONDITION CONTEXT: in vivo
MEASURED ENDPOINT: Cmax
Answer shape: numeric part, then the unit.

Reported Cmax ( C[C@H]1Cc2c(nnn2-c2ncc(F)cn2)CN1C(=O)c1ccnc(C(F)(F)F)c1F ) = 10700 ng/mL

====

# PROCEDURE SUMMARY: Cmax in rat at 125 mg/kg, po for 5 days
# Type: ADME, organism-based
# Set-up: dose 125 mg/kg, route oral
# CONDITION CONTEXT: in vivo
MEASURED ENDPOINT: Cmax (ng/mL)
Give bare numbers, in ng/mL.

Reported Cmax ( C[C@H]1Cc2c(nnn2-c2ncc(F)cn2)CN1C(=O)c1ccnc(C(F)(F)F)c1F ) = 26000

====

Please provide measured concentration at 2 h for the entries that follow.
# PROCEDURE SUMMARY: Drug uptake in Sprague-Dawley rat plasma administered at 10 mg/kg, po measured after 2.0 hrs
# Format: ADME, organism-based
Give bare numbers, in ng/mL.

{"RECORD SMILES": "C[C@H]1Cc2c(nnn2-c2ncc(F)cn2)CN1C(=O)c1cccc(C(F)(F)F)c1F", "MEASUREMENT UNITS": "ng/mL", "concentration at 2 h": 1880}

Reported concentration at 2 h ( C[C@H]1Cc2c(nnn2-c2ncc(F)cn2)CN1C(=O)c1ccnc(C(F)(F)F)c1F ) = 3430

====

# PROCEDURE SUMMARY: AUC in rat dosed at 250 mg/kg, po for 4 days
# Format: ADME, organism-based
# CONDITION CONTEXT: in vivo
MEASURED ENDPOINT: AUC at 96 h (µg·h/mL)
One number for each entry, in µg·h/mL.

Reported AUC at 96 h ( C[C@H]1Cc2c(nnn2-c2ncc(F)cn2)CN1C(=O)c1cccc(C(F)(F)F)c1F ) = 108

====

# PROCEDURE SUMMARY: Half life in cynomolgus monkey at 0.125 mg/kg, iv by LC-MS/MS method
# Type: ADME, organism-based, Macaca fascicularis
# CONDITION CONTEXT: in vivo
MEASURED ENDPOINT: half-life (min)
Give bare numbers, in min.

Reported half-life ( C[C@H]1Cc2c(nnn2-c2ncc(F)cn2)CN1C(=O)c1cccc(C(F)(F)F)c1F ) = 54
